# Tested on: A549 cells
# assayExplanation: MTT cytotoxicity in A549 cells
# Format: cell-based
# setupConditions: Homo sapiens, A549, hypoxia 24 h then normoxia 72 h, read-out: IC50 A549 Hypoxia
pIC50: −log10 of the molar value.
Reported pIC50 values are given for each entry in this list.

The examples below pair each entry with its known result.
> print(dat)
                                   molecule  systemundertest  experimentalendpoint  reportedvalue
1  C[C@H]1[C@@H](OCc2cn(Cc3cc4ccccc4oc3=O)nn2)O[C@@H]2O[C@@]3(C)CC[C@H]4[C@H](C)CC[C@@H]1[C@@]24OO3       A549 cells                 pIC50           4.27
2  Cc1cccc2c(OCc3cn(CCCO[C@H]4O[C@@H]5O[C@@]6(C)CC[C@H]7[C@H](C)CC[C@@H]([C@H]4C)[C@@]57OO6)nn3)cc(=O)oc12       A549 cells                 pIC50           4.40
3  Cc1cc(C)c2c(Cn3cc(CCO[C@H]4O[C@@H]5O[C@@]6(C)CC[C@H]7[C@H](C)CC[C@@H]([C@H]4C)[C@@]57OO6)nn3)cc(=O)oc2c1       A549 cells                 pIC50         < 4.00

Prompt line: Consider the molecule `C[C@H]1[C@@H](OCCn2cc(COc3cc(=O)oc4ccccc34)nn2)O[C@@H]2O[C@@]3(C)CC[C@H]4[C@H](C)CC[C@@H]1[C@@]24OO3` and give its measured pIC50.
Response line: < 4.00

Prompt line: Consider the molecule `C[C@H]1[C@@H](OCCc2cn(Cc3cc4ccccc4oc3=O)nn2)O[C@@H]2O[C@@]3(C)CC[C@H]4[C@H](C)CC[C@@H]1[C@@]24OO3` and give its measured pIC50.
Response line: < 4.00

Prompt line: Consider the molecule `Cc1cc(C)c2c(Cn3cc(CO[C@H]4O[C@@H]5O[C@@]6(C)CC[C@H]7[C@H](C)CC[C@@H]([C@H]4C)[C@@]57OO6)nn3)cc(=O)oc2c1` and give its measured pIC50.
Response line: < 4.00
